Hello, the source for this data is the supplement of paper PMC10567573, in case you need it.

B1: HDAC6 (parent)
chain: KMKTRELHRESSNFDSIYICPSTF

- Variants of: B1
- Assay details: protein stability index of a GFP-peptide fusion (GPS, HEK-293T) (PSI 1-6); higher = more stable;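 also: lentivirally expressed fusions sorted by FACS into six bins by GFP to DsRed ratio, PSI derived from sequencing read proportions per bin multiplied by bin number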
- Condition: c terminus: a fixed tail appended
Observation type: protein stability index

Polymer sequence: KMKQRELHRESSNFDSIYICPSTF [T4Q]
Observation type: protein stability index
Experimental result: 2.26
--
Polymer sequence: KMKTRELHRESSNFDMIYICPSTF [S16M]
Observation type: protein stability index
Experimental result: 1.66
--
Polymer sequence: KMKTRELHRESSNFDLIYICPSTF [S16L]
Observation type: protein stability index
Experimental result: 1.74
--
Polymer sequence: KMKTRELHREMSNFDSIYICPSTF [S11M]
Observation type: protein stability index
Experimental result: 1.61
--
Polymer sequence: KMKTRELHRESANFDSIYICPSTF [S12A]
Observation type: protein stability index
Experimental result: 2.34
--
Polymer sequence: KMKTRELHRESSNFDSIPICPSTF [Y18P]
Observation type: protein stability index
Experimental result: 3.33
--
Polymer sequence: TMKTRELHRESSNFDSIYICPSTF [K1T]
Observation type: protein stability index
Experimental result: 2.14
--
Polymer sequence: KMKTRELHRESSNFDSIYICVSTF [P21V]
Observation type: protein stability index
Experimental result: 2.33
--
Polymer sequence: KMKTRELHRESSNFDSIQICPSTF [Y18Q]
Observation type: protein stability index
Experimental result: 2.96
